biological target: Amine oxidase [flavin-containing] A (Rattus norvegicus)
Sequence (P21396 whole entry): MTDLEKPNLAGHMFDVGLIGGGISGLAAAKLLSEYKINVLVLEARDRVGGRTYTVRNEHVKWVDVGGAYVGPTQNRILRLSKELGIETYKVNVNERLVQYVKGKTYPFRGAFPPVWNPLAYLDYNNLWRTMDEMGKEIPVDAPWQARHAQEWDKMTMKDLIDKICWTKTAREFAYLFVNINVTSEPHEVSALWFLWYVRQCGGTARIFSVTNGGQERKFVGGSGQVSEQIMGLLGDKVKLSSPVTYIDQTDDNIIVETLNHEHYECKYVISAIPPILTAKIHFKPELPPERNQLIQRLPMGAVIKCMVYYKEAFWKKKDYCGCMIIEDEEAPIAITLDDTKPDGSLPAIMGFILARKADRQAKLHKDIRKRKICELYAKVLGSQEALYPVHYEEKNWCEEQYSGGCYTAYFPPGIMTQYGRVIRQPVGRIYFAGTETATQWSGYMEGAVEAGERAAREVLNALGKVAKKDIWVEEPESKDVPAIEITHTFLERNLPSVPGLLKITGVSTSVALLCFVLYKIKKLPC
QUANTITY_KIND: pIC50
On this scale, pIC50 is minus log10 of a concentration expressed in M (mol/L).

Report value: pIC50, system: Amine oxidase [flavin-containing] A (Rattus norvegicus), molecule: "CC(=O)N[C@H]1CC(=O)N(c2ccc(OCc3cccc(F)c3)cc2)C1"
5.11

* * *

experiment: Kinetic aqueous solubility of compound at 500 uM at pH 5.5 after 90 mins by UV-vis spectrophotometric analysis; format: physicochemical; details: buffer, pH 5.5; read-out: Kinetic_solubility
QUANTITY_KIND: solubility kinetic at 1.5 h, 500 µM (µM)

COMPOUND: O=C(Nc1ccc2[nH]ccc2n1)c1ccc(Cl)c(F)c1
solubility kinetic at 1.5 h, 500 µM, µM: 82.1

a. O=C(Nc1ccc2[nH]ccc2n1)c1ccc(F)c(Cl)c1
b. O=C(Nc1cc2cc[nH]c2cn1)c1ccc(Cl)c(Cl)c1
Looking at a and b , which one comes out lower in solubility kinetic at 1.5 h, 500 µM terms? Write down the label attached to your selection.
b
(b: 68.8 µM, a: 111 µM)
